Data origin, for the record: patent US20020177180A1

Hi there, I'd appreciate the recorded Specific activity, esterase E011 for every entry that follows.
System: esterase E011
procedure_summary: Initial screening of ThermoGen esterases toward esters 1-31 (pH indicator), specific activity
Type: biochemical
test_context: 1 mM substrate, pH 7.2, 7 vol % acetonitrile, 25° C.

Would you kindly share the measured Specific activity, esterase E011 for CCCCOC(C)=O [Substrate 25] ? 0.5 mmol ester hydrolyzed/min/mg protein

Would you kindly share the measured Specific activity, esterase E011 for CC(=O)Oc1ccccc1 [Substrate 26] ? 270 mmol ester hydrolyzed/min/mg protein

Would you kindly share the measured Specific activity, esterase E011 for COC(=O)CBr [Substrate 19] ? 1.6 mmol ester hydrolyzed/min/mg protein

Would you kindly share the measured Specific activity, esterase E011 for CCCC(=O)OCC(COC(=O)CCC)OC(=O)CCC [Substrate 29] ? 450 mmol ester hydrolyzed/min/mg protein

Would you kindly share the measured Specific activity, esterase E011 for CC(C(=O)Oc1ccc([N+](=O)[O-])cc1)c1ccccc1 (racemic) [Substrate 1, (±)-4-nitrophenyl-2-phenylpropanoate, reference compound] ? 5.1 mmol ester hydrolyzed/min/mg protein

Others:
Would you kindly share the measured Specific activity, esterase E011 for C=C(C)OC(C)=O [Substrate 27] ? 45 mmol ester hydrolyzed/min/mg protein

###

System: esterase E015
procedure_summary: Initial screening of ThermoGen esterases toward esters 1-31 (pH indicator), specific activity
Assay type: biochemical
test_context: 1 mM substrate, pH 7.2, 7 vol % acetonitrile, 25° C.
readout_type: Specific activity, esterase E015

Okay, here is my list. What is Specific activity, esterase E015 for each of these?
1. CC(C)Cc1ccc(C(C)C(=O)Oc2ccc([N+](=O)[O-])cc2)cc1 (racemic) [Substrate 2, reference compound]
2. CCOC(=O)CBr [Substrate 18]
3. C=COC(=O)CCCCCCCCCCCCC [Substrate 7]
4. CCCCCCCCCCCCCC(=O)Oc1ccc2nc3ccc(=O)cc-3oc2c1 [Substrate 6, Resorufin tetradecanoate, reference compound]
5. CCOC(=O)C(F)(F)F [Substrate 17]

["350 mmol ester hydrolyzed/min/mg protein", "100 mmol ester hydrolyzed/min/mg protein", "3.0 mmol ester hydrolyzed/min/mg protein", "330 mmol ester hydrolyzed/min/mg protein", "190 mmol ester hydrolyzed/min/mg protein"]

###

Hi there, I'd appreciate the recorded Specific activity, esterase E006 for every entry that follows.
System: esterase E006
procedure_summary: Initial screening of ThermoGen esterases toward esters 1-31 (pH indicator), specific activity
Format: biochemical
test_context: 1 mM substrate, pH 7.2, 7 vol % acetonitrile, 25° C.

Would you kindly share the measured Specific activity, esterase E006 for C=C(C)OC(C)=O [Substrate 27] ? 69 mmol ester hydrolyzed/min/mg protein

Next:
Would you kindly share the measured Specific activity, esterase E006 for CCCC(=O)OCC [Substrate 13] ? 1.1 mmol ester hydrolyzed/min/mg protein

###

Tested on: esterase E006
procedure_summary: Initial screening of ThermoGen esterases toward esters 1-31 (pH indicator), specific activity
Type: biochemical
test_context: 1 mM substrate, pH 7.2, 7 vol % acetonitrile, 25° C.
Hi there, I'd appreciate the recorded Specific activity, esterase E006 for every entry that follows.

Worked examples follow.
Would you kindly share the measured Specific activity, esterase E006 for CC(C)(C)CC(=O)Oc1ccc2nc3ccc(=O)cc-3oc2c1 [Substrate 10, reference compound] ? 5.7 mmol ester hydrolyzed/min/mg protein

Would you kindly share the measured Specific activity, esterase E006 for COC(=O)CBr [Substrate 19] ? 1.9 mmol ester hydrolyzed/min/mg protein

Would you kindly share the measured Specific activity, esterase E006 for CCOC(=O)CBr [Substrate 18] ? 4.8 mmol ester hydrolyzed/min/mg protein

Would you kindly share the measured Specific activity, esterase E006 for CC(C)Cc1ccc(C(C)C(=O)Oc2ccc([N+](=O)[O-])cc2)cc1 (racemic) [Substrate 2, reference compound] ? 260 mmol ester hydrolyzed/min/mg protein

Okay, here is my list. What is Specific activity, esterase E006 for each of these?
1. C=COC(=O)CCCCCCC [Substrate 5]
2. NC(Cc1ccccc1)C(=O)Oc1ccc([N+](=O)[O-])cc1.O=C(O)C(F)(F)F (racemic) [Substrate 3, reference compound]

960 mmol ester hydrolyzed/min/mg protein
410 mmol ester hydrolyzed/min/mg protein

Okay, here is my list. What is Specific activity, esterase E006 for each of these?
1. CCCCCCCC(=O)OCC [Substrate 15]
2. CCOC(=O)C(F)(F)F [Substrate 17]

["160 mmol ester hydrolyzed/min/mg protein", "1.7 mmol ester hydrolyzed/min/mg protein"]

Okay, here is my list. What is Specific activity, esterase E006 for each of these?
1. CC(=O)Oc1ccccc1 [Substrate 26]
2. CCCC(=O)OCC1CO1 (stereo not drawn) [Substrate 30]
3. CCCC(=O)OCC(COC(=O)CCC)OC(=O)CCC [Substrate 29]
4. CC(C(=O)Oc1ccc([N+](=O)[O-])cc1)c1ccccc1 (racemic) [Substrate 1, (±)-4-nitrophenyl-2-phenylpropanoate, reference compound]

1: 300 mmol ester hydrolyzed/min/mg protein; 2: 3.5 mmol ester hydrolyzed/min/mg protein; 3: 370 mmol ester hydrolyzed/min/mg protein; 4: 120 mmol ester hydrolyzed/min/mg protein
